These entries and their values trace back to patent US7329737.

Target: T1, hK1 (human tissue kallikrein 1), recombinant (human, UniProt P06870 25-262)
T1 construct: Expressed in P. pastoris from KLK1 cDNA and purified; enzymatically active; also called KLK1; Recombinant (Pichia) Kallikrein
Test: SPR
Here the recorded pKd is given for each entry.
The read-out pKd is expressed as -log10 of concentration in moles per litre.

The cases that follow already have their pKd on record.
- M0122-A05 (Fab, V domains shown) VH: EVQLLESGGGLVQPGGSLRLSCAASGFTFSHYPMHWVRQAPGKGLEWVSSIWPSGGHTSYADSVKGRFTISRDNSKNTLYLQMNSLRAEDTATYYCARLSQPIWGQGTLVTVSS VL: DIQMTQSPSSFSASTGDRVTITCRASQSISRWLAWYQQKPGKAPKLLIYEASTLESGVPSTFSGSGSGTEFTLTISSLQPDDFATYYCQQYNSYPLTFGGGTKVEIKR: 7.51
- M0117-C04 (Fab, V domains shown) VH: EVQLLESGGGLVQPGGSLRLSCAASGFTFSHYLMFWVRQAPGKGLEWVSSIWPSGGNTKYADSVKGRFTISRDNSKNTLYLQMNSLRAEDTAVYYCARPAYYYAMDVWGQGTTVTVSS VL: DIQMTQSPLSLSASVGDRVTITCRASQTFNNYLNWYQQKPGKAPKLLIYAASTLQSGVPSRFSGSGSGTDFTLTISSLQPEDFATYYCQQANSFPFTFGPGTKVDIKR: 7.78
- M0098-H04 (Fab, V domains shown) VH: EVQLLESGGGLVQPGGSLRLSCAASGFTFSHYVMSWVRQAPGKGLEWVSRIYPSGGQTYYADSVKGRFTISRDNSKNTLYLQMNSLRAEDTAVYYCARGAGWFDPWGQGTLVTVSS VL: AQSELTQPPSASGSPGQSLTISCTGGRRDIGNYNYVSWYQQHPGKAPRLIIYDVRKRPSGVPDRFSGSKSGNVAFLTVSGLQTDDEADYYCGSYTGTSNVFGSGTTVTVLG: 8.26

Exam item: // lookup pKd for M0114-G09 (Fab, V domains shown) VH: EVQLLESGGGLVQPGGSLRLSCAASGFTFSHYAMDWVRQAPGKGLEWVSVIYSSGGKTTYADSVKGRFTISRDNSKNTLYLQMNSLRAEDTAMYYCARVGVWYGMDVWGQGTTVTVSS VL: AQSALTQPASVSGSPGQSITISCTGTSSDVGSYKLVSWYQQHPGKAPKLMIYEGSKRPSGVSNRFSGSKSGNTASLTISGLQAEDEADYYCCSYAGSSTWVFGGGTKLTVLG
Marked response: 8.84

Exam item: // lookup pKd for M0110-D11 (Fab, V domains shown) VH: EVQLLESGGGLVQPGGSLRLSCAASGFTFSHYLMYWVRQAPGKGLEWVSRIGPSGGWTKYADSVKGRFTISRDNSKNTLYLQMNSLRAEDTAVYYCARVGVWYGMDVWGQGTTVTVSS VL: AQSELTQPASVSGSPGQSITISCTGTSTDVGGYNYVSWYQKHPGKAPKLMIYDVSNRPSGVSNRFSGSKSGNTASLTISGLQAEDEADYYCSSYTNTITVVFGGGTKLTVLG
Marked response: 8.20
